- experimentalSystem: LFA-1 binding to ICAM-1 (Homo sapiens, UniProt P05107+P20701)
- Sequence (P20701 26-1170): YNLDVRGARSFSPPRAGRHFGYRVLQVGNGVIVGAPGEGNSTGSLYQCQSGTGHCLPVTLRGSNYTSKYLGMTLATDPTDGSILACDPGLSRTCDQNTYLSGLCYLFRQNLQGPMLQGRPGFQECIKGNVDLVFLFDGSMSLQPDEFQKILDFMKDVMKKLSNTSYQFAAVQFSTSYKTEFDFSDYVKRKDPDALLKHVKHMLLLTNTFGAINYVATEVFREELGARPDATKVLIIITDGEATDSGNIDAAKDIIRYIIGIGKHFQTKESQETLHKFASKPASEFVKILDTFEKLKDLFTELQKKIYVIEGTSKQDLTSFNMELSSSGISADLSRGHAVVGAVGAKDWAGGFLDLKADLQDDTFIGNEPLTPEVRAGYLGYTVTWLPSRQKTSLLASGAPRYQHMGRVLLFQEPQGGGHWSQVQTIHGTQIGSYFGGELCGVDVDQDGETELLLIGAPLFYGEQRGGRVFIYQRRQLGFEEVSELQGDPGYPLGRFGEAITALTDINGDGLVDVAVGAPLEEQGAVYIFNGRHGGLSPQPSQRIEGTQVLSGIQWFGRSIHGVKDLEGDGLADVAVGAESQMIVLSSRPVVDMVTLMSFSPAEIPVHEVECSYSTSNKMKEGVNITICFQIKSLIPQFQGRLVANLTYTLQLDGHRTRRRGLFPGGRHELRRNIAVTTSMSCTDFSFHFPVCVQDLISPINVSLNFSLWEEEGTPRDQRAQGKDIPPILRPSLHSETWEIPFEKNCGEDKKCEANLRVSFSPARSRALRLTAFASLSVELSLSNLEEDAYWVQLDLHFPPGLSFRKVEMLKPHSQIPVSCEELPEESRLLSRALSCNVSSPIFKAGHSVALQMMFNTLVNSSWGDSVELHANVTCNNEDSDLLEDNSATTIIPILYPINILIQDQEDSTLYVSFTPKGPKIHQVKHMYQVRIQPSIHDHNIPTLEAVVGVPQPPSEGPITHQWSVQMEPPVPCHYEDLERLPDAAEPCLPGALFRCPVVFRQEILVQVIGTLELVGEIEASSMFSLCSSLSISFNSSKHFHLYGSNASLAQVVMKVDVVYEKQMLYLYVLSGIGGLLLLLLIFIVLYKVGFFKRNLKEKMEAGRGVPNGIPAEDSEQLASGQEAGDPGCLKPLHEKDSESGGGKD
- Sequence (P05107 23-769): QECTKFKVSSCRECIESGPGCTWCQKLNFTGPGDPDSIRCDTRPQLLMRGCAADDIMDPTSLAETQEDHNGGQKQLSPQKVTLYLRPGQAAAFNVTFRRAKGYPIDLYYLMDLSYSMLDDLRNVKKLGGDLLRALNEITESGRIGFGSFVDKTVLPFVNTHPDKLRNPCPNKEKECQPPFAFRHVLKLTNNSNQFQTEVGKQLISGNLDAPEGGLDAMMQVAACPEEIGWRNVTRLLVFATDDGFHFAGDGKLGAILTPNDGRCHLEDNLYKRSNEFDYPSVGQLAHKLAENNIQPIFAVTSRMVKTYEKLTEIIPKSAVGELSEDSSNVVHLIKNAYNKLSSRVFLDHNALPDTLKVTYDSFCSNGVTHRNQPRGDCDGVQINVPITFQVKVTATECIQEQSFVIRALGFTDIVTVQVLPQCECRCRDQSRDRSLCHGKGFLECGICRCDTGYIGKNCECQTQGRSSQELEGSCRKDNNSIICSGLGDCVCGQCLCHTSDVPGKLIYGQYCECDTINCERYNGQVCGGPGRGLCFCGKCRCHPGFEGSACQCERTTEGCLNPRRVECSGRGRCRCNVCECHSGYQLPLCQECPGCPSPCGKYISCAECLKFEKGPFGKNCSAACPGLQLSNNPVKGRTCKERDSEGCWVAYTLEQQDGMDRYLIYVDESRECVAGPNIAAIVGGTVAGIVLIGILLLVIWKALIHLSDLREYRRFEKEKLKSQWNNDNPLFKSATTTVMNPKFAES
- runDescription: Inhibition of LFA-1 binding to ICAM-1 (LFA-1/Biotin-sICAM-1 AlphaScreen molecular assay)
- runParameters: highest compound concentration 1 μM in 1% DMSO, 37° C., 90 minutes
property: IC50 (nM)
Report only the number, with the unit nM understood.

Task item: Form field: reported IC50 of CN1CCN(C(=O)c2cccc(C3(NC(=O)C4(NC(=O)c5cnc6n5[C@](C)(Cc5ccc(C#N)cc5)C(=O)N6c5cc(Cl)cc(Cl)c5)CC4)CC3)n2)CC1
Reply: 0.52

Task item: Lookup C[C@@]1(Cc2ccc(C#N)cc2)C(=O)N(c2cc(Cl)cc(Cl)c2)c2ncc(C(=O)NC3(C(=O)NC4(c5cccc(C(=O)NC6CC6)n5)CC4)CC3)n21
Reply: 0.34

// switching to the query molecule
Task item: Form field: reported IC50 of CC(=O)NCCNC(=O)c1ccnc(C2(NC(=O)C3(NC(=O)c4cnc5n4[C@](C)(Cc4ccc(C#N)cc4)C(=O)N5c4cc(Cl)cc(Cl)c4)CC3)CC2)c1
Reply: 0.37
